tested on: B-16 melanoma cells; assay: Cell-survival rate (cytotoxicity) in B-16 melanoma cell culture; assay type: cell-based; conditions: mouse, 15 ppm
attribute measured: Cell-Survival Rate (%)

1) C=C(C)[C@@H]1CC[C@]2(C(=O)O)CC[C@]3(C)[C@H](CC[C@@H]4[C@@]5(C)CC[C@H](O)C(C)(C)[C@@H]5CC[C@]43C)[C@@H]12 [Betulinic acid, betulinic acid] : 83
2) OC[C@H]1O[C@@H](Oc2ccc(O)cc2)[C@H](O)[C@@H](O)[C@@H]1O [Arbutin, reference compound] : 100
3) O=c1cc(CO)occ1O [Kojic Acid, reference compound] : 100
4) C[C@H]1[C@H](C)CC[C@]2(CO)CC[C@]3(C)C(=CC[C@@H]4[C@@]5(C)CC[C@H](O)C(C)(C)[C@@H]5CC[C@]43C)[C@H]12 [Uvaol, uvaol] : 100
5) CC1(C)CC[C@]2(CO)CC[C@]3(C)C(=CC[C@@H]4[C@@]5(C)CC[C@H](O)C(C)(C)[C@@H]5CC[C@]43C)[C@@H]2C1 [Erythrodiol, erythrodiol] : 100

* * *

system: B-16 melanoma cells; assay: Cell-survival rate (cytotoxicity) in B-16 melanoma cell culture; format: cell-based; details: mouse, 25 ppm
attribute measured: Cell-Survival Rate (%)

1) CC1(C)CC[C@]2(CO)CC[C@]3(C)C(=CC[C@@H]4[C@@]5(C)CC[C@H](O)C(C)(C)[C@@H]5CC[C@]43C)[C@@H]2C1 [Erythrodiol, erythrodiol] : 100
2) C=C(C)[C@@H]1CC[C@]2(C(=O)O)CC[C@]3(C)[C@H](CC[C@@H]4[C@@]5(C)CC[C@H](O)C(C)(C)[C@@H]5CC[C@]43C)[C@@H]12 [Betulinic acid, betulinic acid] : 76
3) O=c1cc(CO)occ1O [Kojic Acid, reference compound] : 100
4) C[C@H]1[C@H](C)CC[C@]2(CO)CC[C@]3(C)C(=CC[C@@H]4[C@@]5(C)CC[C@H](O)C(C)(C)[C@@H]5CC[C@]43C)[C@H]12 [Uvaol, uvaol] : 90
5) OC[C@H]1O[C@@H](Oc2ccc(O)cc2)[C@H](O)[C@@H](O)[C@@H]1O [Arbutin, reference compound] : 100
